System: OVCAR-8 ovarian
procedure-details: NCI tumour cell line growth inhibition, 48 h
value-type: TGI

- compound: "COc1cc(COC(=O)NC(Cc2cccs2)C(=O)O)c([N+](=O)[O-])cc1OC (configuration not stated)"
  TGI: "> 100 µM"
- compound: "N#Cc1c(N/N=C/c2c(Cl)cccc2Cl)nc(N)nc1N1CCCC1"
  TGI: "40.5 µM"
- compound: "COC(=O)C1CCC(=S)N1C(C)=O (configuration not stated)"
  TGI: "> 100 µM"
- compound: "Cc1cc(N(CCCl)CCCl)ccc1/C=N\\NC(=O)c1cccnc1"
  TGI: "> 100 µM"

So what TGI did `N#Cc1c2c(c(Nc3ccc(Cl)cc3)n3c1nc1ccccc13)CCCC2` get with OVCAR-8 ovarian?
> 100 µM

So what TGI did `NNC(=O)COc1nc(-c2cccs2)nc2ccc(I)cc12` get with OVCAR-8 ovarian?
> 100 µM

So what TGI did `Cc1cc(NS(=O)(=O)c2ccc(NC(NC(=O)OC(C)C)(C(F)(F)F)C(F)(F)F)cc2)nc(C)n1` get with OVCAR-8 ovarian?
> 100 µM

So what TGI did `CCc1nc2cc(F)ccc2[nH]c1=O` get with OVCAR-8 ovarian?
> 100 µM

So what TGI did `O=C(/C=C/c1ccc(OCC(=O)N2CCN(c3ccccc3)CC2)cc1)c1ccccc1` get with OVCAR-8 ovarian?
> 67.5 µM

====

Reported TGI values follow for various molecules
Test system: NCI-H522 lung
procedure-details: NCI tumour cell line growth inhibition, 48 h
State just the number; it will be interpreted in µM.

- compound-smiles: "CCNc1nc(-c2ccc(Cl)c(OC)c2)c(-c2ccnc(NCCNS(=O)(=O)c3ccc(Cl)cc3)n2)s1"
  value-type: "TGI"
  result-units: "µM"
  endpoint-value: 4.35

TGI for `O=C(COC(=O)[C@H](C[Se][Se]C[C@H](NC(=O)c1ccc(Br)cc1F)C(=O)OCC(=O)c1ccc(F)cc1)NC(=O)c1ccc(Br)cc1F)c1ccc(F)cc1` ?
4.38

====

Test system: SF-539 CNS
procedure-details: NCI tumour cell line growth inhibition, 48 h
value-type: TGI (µM)
State just the number; it will be interpreted in µM.

- compound: "Cc1c(N(Cc2ccccc2)Cc2ccccc2)nc(S(C)(=O)=O)nc1S(C)(=O)=O"
  TGI (µM): 25.7
- compound: "O=C(/C=C/c1ccc(OCC(=O)N2CCN(c3ccccc3)CC2)cc1)c1ccccc1"
  TGI (µM): 46.8
- compound: "COc1ccc(-c2ccc(/C=N/n3c(COc4ccc(Cl)c(C)c4)nn(CN4CCOCC4)c3=S)o2)c([N+](=O)[O-])c1"
  TGI (µM): 53.9
- compound: "Oc1ccc(CCNc2nc3ccccc3c3[nH]c4ccccc4c23)cc1"
  TGI (µM): 3.19
- compound: "COc1cccc(OC)c1/C=N\\N1C(=O)c2ccccc2C1=O"
  TGI (µM): 52.4

TGI for CCCCN1/C(=N/Nc2n[nH]c(=O)c3ccccc23)SCC1c1ccc(Cl)cc1 (configuration not stated) ?
33.1

TGI for `CCN(CC)CCCNc1nnc(C)c2[nH]c3ccccc3c12` ?
5.86

TGI for `Cc1c(Cl)cc(C(C)(C)C)c(O)c1Cc1c(C)c(Cl)cc(C(C)(C)C)c1O` ?
4.24

TGI for CC(=O)OC1CCC2(C)C(=CCC3C4CC(CN5CC5)C(=O)C4(C)CCC32)C1 (configuration not stated) ?
26.9

====

Tested on: SNB-19 CNS
procedure-details: NCI tumour cell line growth inhibition, 48 h
value-type: TGI

- compound: "COc1cc([C@H]2c3cc(O)c(OC)cc3C[C@]3(O)[C@@H]2CO[C@@H]3O)ccc1O"
  endpoint-value: "> 100 µM"
- compound: "Cc1ccc(C(=O)C2CC3(CCC2(O)c2ccc(C)cc2)CC(=O)Nc2ccccc2C3=O)cc1 (centres undefined)"
  endpoint-value: "> 100 µM"
- compound: "CC(C)S1=C2C(=O)CC(C)(C)CC2=Nc2ccccc21 (centres undefined)"
  endpoint-value: "> 100 µM"
- compound: "C(/Cc1ccc2c(c1)OCO2)=N\\NC1=NCCCCN1"
  endpoint-value: "> 100 µM"
- compound: "COC(=O)C1=C(C)C(=O)C2(CCCCCC2C(=O)OC)C1 (centres undefined)"
  endpoint-value: "> 100 µM"
- compound: "N#Cc1c(N/N=C/c2c(Cl)cccc2Cl)nc(N)nc1N1CCCC1"
  endpoint-value: "> 100 µM"
- compound: "COc1ccc2c(C=O)c3n(c(=O)c2c1OC)CCc1cc2c(cc1-3)OCO2"
  endpoint-value: "> 100 µM"
- compound: "CCn1c(SC)nnc1-c1cc2c([nH]c3ccccc32)c(-c2cccc(O)c2)n1"
  endpoint-value: "47 µM"
- compound: "CC1=C(C(=O)OC(C)(C)C)C(c2ccc([N+](=O)[O-])cc2)C(C(=O)OC(C)(C)C)=C(C)N1"
  endpoint-value: "75.8 µM"
- compound: "CO[C@@H](c1ccccc1)[C@H](O)[C@@](O)(c1ccccc1)P(=O)(OC)OC"
  endpoint-value: "> 100 µM"

TGI for O=P1(C(O)c2ccccc2)N(Cc2ccccc2)[C@@H]2CCCC[C@H]2N1Cc1ccccc1 (some centres undefined) ?
> 100 µM

TGI for `O=C(C[N+]1(c2ccccc2)CCOCC1)c1ccccc1` ?
> 100 µM

TGI for `COc1cccc2c(Nc3ccc(C(=O)NCCN4CCNCC4)cc3)cc(-c3ccccc3)nc12` ?
> 100 µM

TGI for `Cc1c(N(Cc2ccccc2)Cc2ccccc2)nc(S(C)(=O)=O)nc1S(C)(=O)=O` ?
26.1 µM

====

Tested on: TK-10 renal
procedure-details: NCI tumour cell line growth inhibition, 48 h
Reported TGI values follow for various compounds

Would you please look over these solved cases?
- compound: "Nc1nc2c(ccc3ccccc32)[nH]1"
  value-type: "TGI"
  endpoint-value: "> 10 µM"
- compound: "O=C(COC(=O)[C@H](C[Se][Se]C[C@H](NC(=O)c1ccc(Br)cc1F)C(=O)OCC(=O)c1ccc(F)cc1)NC(=O)c1ccc(Br)cc1F)c1ccc(F)cc1"
  value-type: "TGI"
  endpoint-value: "0.9 µM"
- compound: "Clc1cc2ncn(C3CCCO3)c2cc1Cl (stereo unspecified)"
  value-type: "TGI"
  endpoint-value: "> 100 µM"

TGI for Cc1cccc2c1Oc1ncccc1C2NC(=O)CN(C)C (stereo unspecified) ?
> 10 µM

TGI for `CCOC(=O)c1ccc(-c2cccs2)[nH]1` ?
> 100 µM

TGI for `CCOC(=O)/C(=C/c1ccc[nH]1)P(=O)(OCC)OCC` ?
> 100 µM

TGI for `Cn1c(=O)c2c(n(C)c1=O)n1c(=O)c3ccccc3nc1n2C` ?
> 100 µM

TGI for `Cc1c(Cl)cc(C(C)(C)C)c(O)c1Cc1c(C)c(Cl)cc(C(C)(C)C)c1O` ?
10 µM

====

System: SR leukemia
procedure-details: NCI tumour cell line growth inhibition, 48 h
value-type: TGI

Would you please look over these solved cases?
- compound: "O=C1COc2c(CCNCCN(C(=O)CCNCCc3ccc(Cl)c(Cl)c3)C3CCCCC3)ccc(O)c2N1"
  value-type: "TGI"
  endpoint-value: "33.7 µM"
- compound: "O=C(c1ccccc1)n1c2ccc(Br)cc2c2nc3ccccc3nc21"
  value-type: "TGI"
  endpoint-value: "> 100 µM"
- compound: "CC(C)(CCc1nc2ccccc2[nH]1)C(=O)O"
  value-type: "TGI"
  endpoint-value: "> 100 µM"
- compound: "O=C(NCc1cccnc1)c1ccc([N+](=O)[O-])o1"
  value-type: "TGI"
  endpoint-value: "> 32.5 µM"
- compound: "CC1SCCc2nc3ccccc3n21 (centres undefined)"
  value-type: "TGI"
  endpoint-value: "> 100 µM"
- compound: "NS(=O)(=O)c1cc2c(cc1Cl)NC(C(=O)NNC(=O)c1ccncc1)=NS2(=O)=O"
  value-type: "TGI"
  endpoint-value: "> 100 µM"

TGI for `CCOC(=O)Oc1ccc2[nH]c3c(C)cc(N)c(C)c3c2c1` ?
> 100 µM

TGI for `O=CC12CCCN1CCC2` ?
> 100 µM

TGI for `CCOP(=O)(OCC)/C(C#N)=C(\C)c1ccco1` ?
> 10 µM

====

Reported TGI values follow for various compounds
Tested on: COLO 205 colon
procedure-details: NCI tumour cell line growth inhibition, 48 h

Would you please look over these solved cases?
- compound: "O=C(Nc1ccccc1)Oc1ccccc1C1CCCCC1"
  assay-target: "COLO 205 colon"
  TGI: "30.6 µM"
- compound: "CC(C)=NO.CC(C)=NO.CC(C)=NO.CC(C)=NO.[Ti]"
  assay-target: "COLO 205 colon"
  TGI: "> 100 µM"
- compound: "Cc1ccc(C(=O)C2CC3(CCC2(O)c2ccc(C)cc2)CC(=O)Nc2ccccc2C3=O)cc1 (configuration not stated)"
  assay-target: "COLO 205 colon"
  TGI: "> 100 µM"
- compound: "Cc1[nH]n(C(=O)c2ccc(Cl)cc2)c(=O)c1/C=C1\\C(O)=CC(=O)c2ccccc21"
  assay-target: "COLO 205 colon"
  TGI: "> 100 µM"
- compound: "Nc1ccc(N)c2c1C(=O)c1cccc([N+](=O)[O-])c1C2=O"
  assay-target: "COLO 205 colon"
  TGI: "> 55.4 µM"

TGI for `C[C@@H](c1ccccc1)N(CC#N)[C@H]1CCC[C@]1(O)/C=C/c1ccc2c(c1)OCO2` ?
> 25 µM

TGI for `Cn1c(=O)c(C#N)c(O)c2cc3ccccc3nc21` ?
> 100 µM

TGI for `COC(=O)CCSC(=O)Nc1ccccc1Cl` ?
> 100 µM

TGI for Cc1ccc(C)c(C(=O)CC2OC(O)C(Cl)C2Cl)c1 (configuration not stated) ?
> 100 µM

TGI for COC(=O)C(NC(=O)c1ccccc1)c1ccc(OC)c(I)c1 (configuration not stated) ?
> 100 µM

TGI for `Cn1nc(-c2ccccc2)c(C(=O)/C=C/c2ccccc2)c(N2CCCC2)c1=O` ?
30 µM

TGI for `CN1Cc2c(ccc3c2OCO3)[C@@H]2[C@H](O)Cc3cc4c(cc3[C@@H]21)OCO4` ?
4.55 µM
